test system: C. parapsilosis ATCC 22019; test: Anti-Fungal (Candida) Activity Assay, broth microtiter MIC; type: cell-based; settings: Lodderomyces parapsilosis, ATCC22019; 3 replicates, MIC recorded at 48 h; read-out: MIC C. parapsilosis ATCC 22019
RECORDED_METRIC: MIC

Use the examples below as a reference point.
COc1ccc(F)cc1[C@H](Cn1c(=O)n(C(C)C(=O)NC(C)C)c(=O)c2c(C)c(-n3cccn3)sc21)OCC(C)(C)O (stereo partly shown)	> 4.1 µg/mL
COc1ccc(F)cc1[C@H](Cn1c(=O)n(C(C)(C)C(N)=O)c(=O)c2c(C)c(-n3cccn3)sc21)OC1CCOCC1	> 4.1 µg/mL

For reference, reported MIC for COc1ccc(F)cc1[C@H](Cn1c(=O)n(C(C)(C)C(N)=O)c(=O)c2c(C)c(-n3cccn3)sc21)O[C@H]1CC[C@@H](O)CC1 stands at 2.1 to 4 µg/mL

Noted for COc1ccccc1[C@H](Cn1c(=O)n(C(C)(C)C(=O)N2CCCC2)c(=O)c2c(C)c(-n3cccn3)sc21)OC1CCOCC1 : its MIC reads > 4.1 µg/mL

Just so you know, measured MIC for CCO[C@@H](Cn1c(=O)n(C(C)(C)C(=O)N2CCCC2)c(=O)c2c(C)c(-n3cccn3)sc21)c1cc(F)ccc1OC came out at > 4.1 µg/mL

Notebook: COc1ccc(F)cc1[C@H](Cn1c(=O)n(C(C)C(=O)NC(C)C)c(=O)c2c(C)c(-n3cccn3)sc21)OCCO (stereo partly shown) , MIC read as > 4.1 µg/mL

Quick note, MIC for COCCOc1ccc(F)cc1[C@H](Cn1c(=O)n(C(C)(C)C(=O)O)c(=O)c2c(C)c(-n3cccn3)sc21)OC(C)C landed at > 4.1 µg/mL

MIC recorded for this molecule, COCCO[C@@H](Cn1c(=O)n([C@H](C)C(=O)NC(C)C)c(=O)c2c(C)c(-n3cccn3)sc21)c1cc(F)ccc1OC , is > 4.1 µg/mL

Entry under test: COc1ccc(F)cc1[C@H](Cn1c(=O)n(C(C)(C)C(=O)N2CCCC2)c(=O)c2c(C)c(-n3cccn3)sc21)OC(C)C . Its MIC was > 4.1 µg/mL

---

system: Fusarium moniliforme (Fm); assay: Growth inhibition assay of fungal pathogens; format: cell-based; settings: Fusarium verticillioides, 48 h, Table 4a, 48 hours; read-out: Concentration at 90% Inhibition Fm
IC90 reference
The reply should be a number in µg/mL, with the unit left off.

Example compounds with recorded IC90:
COc1ccc(F)cc1[C@H](Cn1c(=O)n(C(C)(C)C(=O)N2CCCC2)c(=O)c2c(C)c(-n3cccn3)sc21)OCC(C)(C)O	0.4
COc1ccc(F)cc1[C@H](Cn1c(=O)n(C(C)(C)C(=O)N2CCCC2)c(=O)c2c(C)c(-n3cccn3)sc21)O[C@H]1CC[C@@H](O)CC1	0.4
COc1ccccc1[C@H](Cn1c(=O)n(C(C)(C)C(=O)N2CCCC2)c(=O)c2c(C)c(-n3cccn3)sc21)OC(C)C	0.08
COc1ccc(F)cc1[C@H](Cn1c(=O)n(C(C)(C)C(=O)N2CCCC2)c(=O)c2c(C)c(-n3cccn3)sc21)OC[C@@H](C)O	0.4
COc1ccc(F)cc1[C@H](Cn1c(=O)n(C(C)(C)C(N)=O)c(=O)c2c(C)c(-n3cccn3)sc21)O[C@H]1CC[C@@H](O)CC1	2

Summary for this compound, COc1ccc(F)cc1[C@H](Cn1c(=O)n(C(C)(C)C(N)=O)c(=O)c2c(C)c(-n3cccn3)sc21)OC1CCC(=O)CC1 : IC90 is 10

Entry CCO[C@@H](Cn1c(=O)n(C(C)(C)C(=O)N2CCCC2)c(=O)c2c(C)c(-n3cccn3)sc21)c1cc(F)ccc1OC ; IC90 = 0.08

Documented IC90 of COc1ccc(F)cc1[C@H](Cn1c(=O)n(C(C)(C)C(=O)N2CCCC2)c(=O)c2c(C)c(-n3cccn3)sc21)OC[C@H](C)O : 2

# IC90 (compound: COc1ccc(F)cc1[C@H](Cn1c(=O)n(C(C)(C)C(N)=O)c(=O)c2c(C)c(-n3cccn3)sc21)OC1CCOCC1 ) is 2

In plain terms, COc1ccc(F)cc1[C@H](Cn1c(=O)n(C(C)(C)C(=O)N2CCCC2)c(=O)c2c(C)c(-n3cccn3)sc21)OC(C)C has a documented IC90 of 0.08

Measured IC90 of COc1ccc(F)cc1[C@H](Cn1c(=O)n(C(C)(C)C(=O)N2CCOCC2)c(=O)c2c(C)c(-n3cccn3)sc21)OC(C)C : 2

The recorded IC90 for COc1ccc(F)cc1[C@H](Cn1c(=O)n(C(C)(C)C(=O)N2CCCC2)c(=O)c2c(C)c(-n3cccn3)sc21)OC1CCC(=O)CC1 is 0.4
